Values from PubChem BioAssay AID1159580

Test: chemical genetic growth profiling, strain panel (AID 1159580);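 also: tested at 20 µM; growth read once vehicle control cultures reached saturation at 30 °C; 1 = growth at the plate median or of vehicle wells; lower values mean less growth of the strain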
Conditions: S. cerevisiae deletion strains, growth OD, strain wtn01, hits give low values
Hit rate of the full screen: of about 5,500 compounds, about 2,000 (36%) were called active. About 18% were inconclusive and are not listed. This is one part of the list.
ASSAY_READOUT: normalized growth

1. CC(C)=CCCC(C)[C@@H]1CC[C@]2(C)C3=C(CC[C@@]12C)C1(C)CC[C@H](O)C(C)(C)C1CC3 (stereo not given in full): 0.949
2. CCCN(CCC)S(=O)(=O)c1ccc(C(=O)O)cc1: 1.01
3. CC(=O)O[C@H]1CCC2(C)C3=C(CCC2C1(C)C)[C@@]1(C)CC[C@@H](C(C)CCC=C(C)C)[C@]1(C)CC3 (stereo not given in full): 0.997
4. CCCc1c(OCCCCc2nn[nH]n2)ccc(C(C)=O)c1O: 0.993
5. O=C(NCO)c1cccnc1: 0.996
6. C=C(C)C1CCC(C)(O)C2CC3OC3(C)C2C1 (stereo not given): 1
7. CC(C)CCCC(C)[C@H]1CCC2C3CC=C4C[C@@H](O)CC[C@]4(C)C3CC[C@@]21C (stereo not given in full): 0.972
8. O=C(O)c1ccc(S(=O)(=O)N(Cl)Cl)cc1: 1.01
9. CC(C)CCCC(C)C1CC[C@@]2(C)C3=C(CC[C@]12C)[C@@]1(C)CC[C@H](O)C(C)(C)C1CC3 (stereo not given in full): 0.985
10. Nc1ccc(S(=O)(=O)NC(=O)c2ccccc2)cc1: 1.01

---

Experiment: chemical genetic growth profiling, strain panel (AID 1159580);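 also: tested at 20 µM; growth read once vehicle control cultures reached saturation at 30 °C; 1 = growth at the plate median or of vehicle wells; lower values mean less growth of the strain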
Settings: S. cerevisiae deletion strains, growth OD, locus YNL071W, strain lat1
Out of some 5,500 compounds screened, about 2,000 (36%) were called active. Not shown: some 18% with an inconclusive outcome. Cut-off read from the data, not from the text of the source: active = normalized growth mostly below about 0.91 (no sharp cut-off); inconclusive = no clear call, values can overlap the other calls; inactive = mostly above about 0.92. The list shows a part of the results.
Classes used: yes (1) (active), no (0) (inactive)

1) CC(=O)O[C@H]1CCC2(C)C3=C(CCC2C1(C)C)[C@@]1(C)CC[C@@H](C(C)CCC=C(C)C)[C@]1(C)CC3 (some centres undefined): no (0)
2) Cc1scc2c1N(C(=O)CN1CCN(C)CC1)c1ccccc1NC2=O: no (0)
3) COc1cc(C(C)=O)cc(OC)c1O: no (0)
4) CCOC(=O)NNc1nncc2ccccc12: no (0)
5) CNNC: no (0)
6) CN(C)[C@@H]1C(=O)C(C(=O)NCN2CCCC2)=C(O)[C@@]2(O)C(=O)C3=C(O)c4c(O)cccc4[C@@](C)(O)[C@H]3C[C@@H]12: no (0)
7) CC1=CC(=O)c2ccccc2C1=O: yes (1)
8) COc1ccc2cc(CCC(C)=O)ccc2c1: no (0)
9) CC(=O)O[C@H]1CCC2(C)C3=C(CCC2C1(C)C)[C@]1(C)CCC(C(C)CCC=C(C)C)[C@@]1(C)CC3 (some centres undefined): no (0)
10) CC(=O)c1cc(CC=C(C)C)c(O)c(CC=C(C)C)c1: no (0)
11) CC(C)CCCC(C)C1CCC2C3CC(=O)[C@H]4C[C@@H](O)CC[C@]4(C)C3CC[C@]12C (some centres undefined): no (0)
12) CC(C)(C)NC[C@H](O)c1ccc(O)c(CO)c1: no (0)
13) CC(=O)Oc1ccc(/C=C/c2cc(OC(C)=O)cc(OC(C)=O)c2)cc1: no (0)
14) CC1=CC(=O)c2c(O)cccc2C1=O: yes (1)
15) CC1(C)CC2C1CC[C@]1(C)CCC3C(C(=O)O)CC(=O)O[C@@]32C1 (some centres undefined): no (0)
16) O=P1(NCCCl)OCCCN1CCCl (centres undefined): no (0)
17) CC(=O)c1ccc(O)c(CC=C(C)C)c1: no (0)
18) CC(C)=CC1C(C(=O)O)C1(C)C (centres undefined): no (0)
19) CC(C)CCCC(C)[C@H]1CCC2C3CC=C4C[C@@H](O)CC[C@]4(C)C3CC[C@@]21C (some centres undefined): no (0)
20) C/C1=C/CC(C)(C)/C=C/C/C(C)=C/CC1: no (0)
21) COC(=O)c1c(OC)cc2c(c1C)Oc1c(Cl)c(OC(C)=O)c(Cl)c(C)c1C(=O)O2: no (0)
22) CC(C)CCCC(C)C1CCC2C3C[C@@H](O)[C@@]4(O)C[C@@H](O)CC[C@]4(C)C3CC[C@]12C (some centres undefined): no (0)
23) COC(=O)c1c(OC)cc2c(c1C)Oc1c(Cl)c(O)c(Cl)c(C)c1C(=O)O2: no (0)
24) COC(=O)c1c(C)c2c(c(C)c1O)OC(=O)c1c(C)c(Cl)c(O)c(Cl)c1O2: no (0)
25) CCN(CC)CCOCCOC(=O)C1(c2ccccc2)CCCC1: no (0)
26) COc1cc(C/C=C/c2ccccc2)c(OC)cc1O: yes (1)
27) C=C1c2cccc(O)c2C(O)=C2C(=O)[C@]3(O)C(O)=C(C(N)=O)C(=O)[C@@H](N(C)C)[C@@H]3[C@@H](O)[C@H]12: no (0)
28) CCCSc1ccc2nc(NC(=O)OC)[nH]c2c1: no (0)
29) CC(=O)O[C@H]1CC[C@@]2(C)C(=CC(=O)C3C4CCC(C(C)CCCC(C)C)[C@@]4(C)CCC32)C1 (some centres undefined): no (0)
30) Oc1c(Cl)cc(Cl)cc1Sc1cc(Cl)cc(Cl)c1O: yes (1)
31) CCC(C)[C@H]1O[C@]2(C=C[C@@H]1C)C[C@@H]1C[C@@H](C/C=C(\C)[C@@H](OC3C[C@H](OC)C(O[C@H]4C[C@H](OC)[C@@H](O)[C@H](C)O4)[C@H](C)O3)[C@@H](C)/C=C/C=C3\CO[C@@H]4[C@H](O)C(C)=C[C@@H](C(=O)O1)[C@]34O)O2 (some centres undefined): yes (1)
32) Oc1cccc(O)c1: no (0)
33) CC(=O)N[C@@H](Cc1c[nH]c2ccccc12)C(N)=O: no (0)
34) O=C1NC(O)=NC1(c1ccccc1)c1ccccc1: no (0)
35) CNCCCC12CCC(c3ccccc31)c1ccccc12: no (0)
36) CCC(C)C(=O)OC1[C@@H]2CC3=C4CC(=O)O[C@@H](c5ccoc5)[C@]4(C)CCC3[C@@](C)(C2=O)[C@@H](CC(=O)OC)C1(C)C (some centres undefined): no (0)
37) CC(=O)Oc1ccc(O)cc1: no (0)
38) Cc1cn[nH]c1: no (0)
39) C[C@H]1c2cccc(O)c2C(O)=C2C(=O)[C@]3(O)C(O)=C(C(N)=O)C(=O)[C@@H](N(C)C)[C@@H]3[C@@H](O)[C@@H]21: no (0)
40) CC(C)c1ccc2c(c1)CCC1C(C)(C(N)=O)CCCC21C (centres undefined): yes (1)
41) CC(=O)Oc1cccc(O)c1: no (0)
42) CC(C)c1ccc2c(c1)CCC1[C@](C)(CN)CCC[C@]21C (some centres undefined): yes (1)
43) N=C(N)N: no (0)
44) CC12CCC3C(CC3(C)C)C(C)(CCC1=O)O2 (centres undefined): no (0)
